Readings of viability at 28.5 h, 10 µM for the listed compounds
experiment: in vitro; conditions: human, hela cells, % viability
Please give the number followed by its unit.

{"compound": "Cc1cc(COc2cc(N3CCCC3)ncn2)no1 [CBK115898]", "measured-property": "viability at 28.5 h, 10 µM", "result": "93.1%"}

Asked: // query viability at 28.5 h, 10 µM value for entry O=C(O)c1ccc(NS(=O)(=O)c2ccc3c(c2)C(=O)c2ccccc2C3=O)cc1 [CBK299828]
Given back: 88.3%

Asked: Another compound to check: COc1cccc(CN[C@@H]2CCC[C@H]2Cc2cc(C)no2)c1 [CBK283006]
Given back: 109%

Asked: Now the same for COc1ccc(CC(=O)N2C3CCC2CC(O)(c2ccco2)C3)cc1 (centres unmarked) [CBK284137]
Given back: 92.5%

Asked: Please give the result for O=C(c1cc(F)c(F)cc1F)N1CCC2(CCCN(Cc3ccc(Cl)c(Cl)c3)C2)C1 (centres unmarked) [CBK131990] too.
Given back: 95.1%

----------
# viability at 28.5 h, 10 µM listing for each entry below
assay: in vitro; conditions: human, hela cells, % viability
API: value field is a number in %; no unit string.

Sample records with viability at 28.5 h, 10 µM:
{"compound": "O=[N+]([O-])c1ccc(N2CCNCC2)cc1NCc1ccccn1 [CBK268074]", "value-unit": "%", "viability at 28.5 h, 10 µM": 122}
{"compound": "COc1nccnc1N1CCN(CC(=O)Nc2c(C)cccc2C)CC1 [CBK084220]", "value-unit": "%", "viability at 28.5 h, 10 µM": 89.1}
{"compound": "COc1ccc(OC)c(N/C=C(/C#N)c2nc(-c3cc4c(ccc5ccccc54)oc3=O)cs2)c1 [CBK262991]", "value-unit": "%", "viability at 28.5 h, 10 µM": 109}
{"compound": "N#Cc1ccc(NCc2ccccc2CN2CCCC2CO)nc1 (stereo not shown) [CBK304055]", "value-unit": "%", "viability at 28.5 h, 10 µM": 95.8}
{"compound": "COc1cc([C@@]23CC[C@@H](NC(=O)Nc4cc(F)ccc4F)C[C@@H]2N(C)CC3)ccc1OC(F)F [CBK073834]", "value-unit": "%", "viability at 28.5 h, 10 µM": 106}

Asked: Item under review: CC(C)(C)c1nn(CC2CCCCC2)c(=N)s1 [CBK075042] . Reported viability at 28.5 h, 10 µM?
Given back: 96.2

Asked: And the next one, Cc1ccc(-c2nnc(C3CCCN(C(=O)C4CC4)C3)o2)s1 (stereo not shown) [CBK285516] ?
Given back: 83.9

Asked: Do the same for COCC(=O)N1CCC(c2onc3c2CC(C)CC3)CC1 (stereo not shown) [CBK284599] please
Given back: 89.9

Asked: Field entry: COc1ccc(C(=O)N2Cc3ccccc3C2)c(OC)n1 [CBK200317]
Given back: 103

Asked: For Cc1cc(CNC(=O)COc2ccc(C#N)cc2)c2ccccc2n1 [CBK270129] then?
Given back: 87.6

----------
experiment: in vitro; conditions: human, hela cells, % viability
# reported viability at 28.5 h, 10 µM; entries follow
Give just the number in %; leave the unit off.

{"compound": "CCN1C(=O)COC[C@@H]1[C@H](O)c1ccc(NC(=O)C2CCC2)cc1", "viability at 28.5 h, 10 µM / %": 85.7}
{"compound": "Cc1cccc(NCC2CCN(Cc3cc(=O)n4ccccc4n3)C2)n1 (stereo not drawn)", "viability at 28.5 h, 10 µM / %": 100}
{"compound": "Cc1ccccc1-c1ccc(C(=O)Nc2ccc3c(c2)OCO3)c(N2CCN(C(=O)c3ccco3)CC2)n1", "viability at 28.5 h, 10 µM / %": 101}
{"compound": "O=c1c(-c2nnc(SCc3cccc(C(F)(F)F)c3)o2)cccn1Cc1ccccc1", "viability at 28.5 h, 10 µM / %": 108}
{"compound": "CCCCn1c(SC(C)C(N)=O)nc2cc(C(=O)OC)ccc2c1=O (stereo not drawn)", "viability at 28.5 h, 10 µM / %": 84}
{"compound": "CCC(C)C(NC(=O)c1ccccc1NC(=O)c1ccc(OC)cc1)C(=O)O (stereo not drawn)", "viability at 28.5 h, 10 µM / %": 91.4}
{"compound": "COc1ccc(CNC(=O)[C@H]2C=CCN2C(=O)c2cccs2)cc1", "viability at 28.5 h, 10 µM / %": 103}
{"compound": "CCC(CC)C(=O)N1CC[C@H]2NC(=O)N(Cc3ccccc3)C(=O)[C@H]21", "viability at 28.5 h, 10 µM / %": 88.7}

Asked: Sample Cc1nc(-c2ccccc2)sc1C(=O)C1=C(O)C(=O)N(CCCN2CCOCC2)C1c1ccco1 (stereo not drawn) — what was its viability at 28.5 h, 10 µM?
Given back: 111

----------
assay: in vitro; details: human, hela cells, % viability
measured-property: viability at 28.5 h, 10 µM (%)
Numeric only. Scale: %

Here is how some compounds turned out for viability at 28.5 h, 10 µM.
{"compound": "Cc1ncc(COP(=O)(O)O)c(/C=N/c2ccc3ccccc3c2)c1O [CBK261460]", "value-unit": "%", "numeric-value": 106}
{"compound": "O=C(c1cccnc1)N1CCN(Cc2ccc([N+](=O)[O-])cc2)CC1 [CBK263026]", "value-unit": "%", "numeric-value": 93.4}
{"compound": "O=C(O)c1[nH]c2ccccc2c1C(c1ccsc1)c1c(C(=O)O)[nH]c2ccccc12 [CBK267811]", "value-unit": "%", "numeric-value": 103}
{"compound": "COCCNc1cc(-c2ccc(SC)cc2)ncn1 [CBK090795]", "value-unit": "%", "numeric-value": 105}
{"compound": "COc1ccc([C@@]23CC[C@@H](NC(=O)c4ccc(C(F)(F)F)cc4F)C[C@@H]2N(C)CC3)cc1OC [CBK073976T]", "value-unit": "%", "numeric-value": 108}
{"compound": "O=[N+]([O-])c1ccc(OCCO)cc1 [CBK000628]", "value-unit": "%", "numeric-value": 84.8}
{"compound": "S=C(NCCN1CCCCC1)NCc1ccccc1 [CBK263066]", "value-unit": "%", "numeric-value": 112}
{"compound": "CN1N=C(c2ccccc2)CC1=O [CBK067774]", "value-unit": "%", "numeric-value": 96.4}

Asked: Field request: viability at 28.5 h, 10 µM | item: CC(Cc1cccs1)NC(=O)C(C)n1ccnc1 (stereo not shown) [CBK282050]
Given back: 89.9

Asked: And what about the compound O=C(CN1C(=O)c2ccncc2C1=O)Nc1ccccn1 [CBK288624] ?
Given back: 89.9

----------
experiment: in vitro; conditions: human, hela cells, % viability
The entries below are paired with their reported viability at 28.5 h, 10 µM.
The reply should be a number in %, with the unit left off.

Asked: // query viability at 28.5 h, 10 µM value for entry "Cc1cccc(C(C)(C)C)c1NC(=O)N1CCC(Cc2ccccc2)CC1"
Given back: 112

----------
assay: in vitro; conditions: human, hela cells, % viability
measured-property: viability at 28.5 h, 10 µM (%)
Use % as the unit, but write only the number.

Asked: // query viability at 28.5 h, 10 µM value for entry N[C@H]1CC[C@H](N(CCc2ccccc2)C(=O)N[C@@H]2C[C@H]2c2ccccc2)CC1 [CBK000474C]
Given back: 110

Asked: Try this compound next: O=C1CN(Cc2nc(-c3cccc(C(F)(F)F)c3)no2)CCN1 [CBK306038]
Given back: 92.9

Asked: What about O=C(NCc1ccc(-c2csnn2)cc1)c1ccc(Oc2ccccc2)cc1 [CBK149300] ?
Given back: 108

Asked: How about this compound: CN(C)S(=O)(=O)c1cccc(C(=O)NCc2ccco2)c1 [CBK270135]
Given back: 94.7

Asked: Query CCOC(=O)c1cnn(C2CCCN(C(=O)c3cscc3C)C2)c1 (stereo not shown) [CBK305385] next
Given back: 93.1

Asked: Another compound to look at: COc1cccc(CNc2ccc(N3CCCCC3)cc2)c1OCc1cccs1 [CBK074531]
Given back: 96.5

Asked: And then Cn1c(SCC(=O)O)nnc1-c1cc(Br)ccc1O [CBK269150] , what is it?
Given back: 103

Asked: Entry c1ccc2[nH]c(CCSCCc3nc4ccccc4[nH]3)nc2c1 [CBK023949] please
Given back: 86

Asked: Same question for CCOc1cc(C)c(C(C)C)cc1S(=O)(=O)NCc1ccccn1 [CBK268080] please.
Given back: 104

Asked: // query: COC(=O)c1cccn2cc(CN3CCSC(C)C3)nc12 (stereo not shown) [CBK304958]
Given back: 97.4
